These entries and their values trace back to ChEMBL document CHEMBL1201862.

tested on: LOX IMVI; assay: NCI tumour cell line growth inhibition, 48 h
Calls of active or inactive are those of the source. Cut-off read from the data, not from the text of the source: active = GI50 up to about 1.1 µM and inactive = higher.
property name: GI50

IN: // query GI50 value for entry CC1=NN(c2nc(N)nc(C/C(N)=N/O)n2)C(C)(C)C1
OUT: > 100 µM (inactive)

* * *

Entries and their measured GI50 follow.
tested on: SK-MEL-2; test: NCI tumour cell line growth inhibition, 48 h
Active and inactive are the calls of the source. No stated cut-off is given here; in the data, active = GI50 up to about 1.1 µM and inactive = higher.

See these solved cases before continuing.
1. CCOC(=O)C(C(=O)OCC)c1cc(-c2cc3ccccc3o2)oc(=O)c1C#N
19.8 µM (inactive)
2. Cn1cnc2[nH]c(=O)[nH]c(=S)c21
> 100 µM (inactive)
3. CCCCCCCCCCCCOC(=N)N1CCOCC1
9.51 µM (inactive)
4. O=C1Nc2c(Cl)cc(Cl)cc2/C1=N/N=C/c1ccco1
24.4 µM (inactive)

# input for lookup
IN: Short answer please: GI50, SK-MEL-2, entry CC(C)=CCC(OC(=O)C=C(C)C)c1cc(O)c2c(c1O)C(=O)C=CC2=O (stereo not given)
OUT: 2.01 µM (inactive)

* * *

tested on: SR; assay: NCI tumour cell line growth inhibition, 48 h
The source made the active and inactive calls. Cut-off read from the data, not from the text of the source: active = GI50 up to about 1.1 µM and inactive = higher.
I would appreciate it if you answered using one of these outcomes: active, inactive

Check out these entries, answers already filled in.
1. CC(C)=CCC[C@@H](C)C1=C(O)C(=O)C(C)=C(N[C@H](C)c2ccccc2)C1=O
inactive
2. O=C(CCCN1CC=C(n2c(=O)[nH]c3ccccc32)CC1)c1cccs1
inactive
3. CCC[C@@H]1C(=O)N=C(N)N1C(=O)OCc1ccccc1
inactive
4. O=C(NC(Nc1ccc(F)c(Cl)c1)(C(F)(F)F)C(F)(F)F)OCc1ccccc1
inactive
5. CCN(CC)CCNc1ccc2nc(C)n3c4ccc(OC)cc4c(=O)c1c23
active

// switching to the query compound
IN: Hi team, can someone confirm the assay call for O=C1Nc2ccccc2/C1=N/Nc1ccc([N+](=O)[O-])cc1[N+](=O)[O-] ?
OUT: inactive

* * *

Entries annotated with measured GI50
system: SNB-19; experiment: NCI tumour cell line growth inhibition, 48 h
Activity calls are given as the source filed them. Cut-off read from the data, not from the text of the source: active = GI50 up to about 1.1 µM and inactive = higher.

1. CCCCC1CC(c2ccc(Cl)cc2)=NO1 (configuration not stated)
> 100 µM (inactive)
2. c1ccc(/C(=N/Nc2ccncn2)c2ccccn2)cc1
46.8 µM (inactive)
3. N#Cc1c(-c2ccccc2)c(C#N)c(=S)n(C2OC(CO)C(O)C(O)C2O)c1N (configuration not stated)
> 100 µM (inactive)
4. CCOC(CN(C)C(=O)Nc1cccc2ccccc12)OCC
> 10 µM (inactive)
5. NC(=O)c1ncn(C2OC(CO)C(O)C2O)c1O (configuration not stated)
> 100 µM (inactive)

IN: Suppose we examine the compound CSC[C@H](NC(=O)COc1cccc2cnccc12)C(=O)NC(Cc1ccccc1)C(O)C(=O)N1CSC[C@H]1C(=O)NC(C)(C)C (some centres not stated) ; what GI50 value has been reported?
OUT: > 100 µM (inactive)

IN: Try this compound next: COc1ccc(C[n+]2cccc(O)c2)cc1
OUT: > 100 µM (inactive)

IN: Next compound up: O=c1n(CCCN2CCOCC2)nc2n1-c1ccc3ccccc3c1SC2
OUT: 52.6 µM (inactive)

IN: Further, for COc1ccc(C)cc1Nc1nnc(-c2ccc(N)cc2)s1 ?
OUT: > 100 µM (inactive)

IN: Queued: NC(=O)N/N=C\CC(O)(C(F)(F)Cl)C(F)(F)Cl
OUT: > 10 µM (inactive)

IN: Input COc1ccc(/[N+]([O-])=C/c2ccccc2OC(=S)S)cc1
OUT: 51.3 µM (inactive)

IN: Next compound: CCOC(=S)SCC(=O)O
OUT: > 100 µM (inactive)

IN: Let us now turn to CN(CCCNC(=O)c1nn(-c2ccc(Cl)cc2Cl)c2c1ccc1ccccc12)CCCNC(=O)c1nn(-c2ccc(Cl)cc2Cl)c2c1ccc1ccccc12
OUT: 1.54 µM (inactive)

* * *

tested on: SF-268; assay: NCI tumour cell line growth inhibition, 48 h
Activity calls are given as the source filed them. No stated cut-off is given here; in the data, active = GI50 up to about 1.1 µM and inactive = higher.
Hi there, use one of these labels in your reply, thanks! active, inactive

Worked examples follow.
1. COc1ccc(CCc2cc(OC)c(O)c(OC)c2)cc1
inactive
2. Cc1ccccc1Nc1nc2ccccc2nc1NS(=O)(=O)c1ccccc1
inactive

IN: Outcome logged for Cn1c2n/c(=N\c3ccc(Cl)cc3)[n+]3ccc4ccccc4c3c-2c([O-])n1-c1ccccc1 in this assay:
OUT: inactive

IN: Now the same for Cc1nc2sc3ccccc3n2c(=O)c1/N=N/c1ccc(Cl)cc1
OUT: inactive

IN: Now the molecule CNC/C(Cl)=N/S(=O)(=O)c1ccc(C)cc1
OUT: inactive

IN: And OC1(c2ccccc2)OC(C#Cc2ccccc2)(c2ccccc2)c2ccccc21 (stereo unspecified) ?
OUT: inactive

IN: Next: O=C1O/C(=C(\Br)c2ccc([N+](=O)[O-])cc2)c2ccccc21
OUT: inactive

IN: Another molecule: O=[N+]([O-])c1ccc2[nH]c(=S)[nH]c(=S)c2c1
OUT: inactive

IN: Let us now turn to CC(O)(c1ccc(OCCC[N+](C)(C)C)cc1)C(C)(O)c1ccc(OCCC[N+](C)(C)C)cc1 (stereo unspecified)
OUT: inactive

IN: Same again, this time with CC(C)C(CC(=O)OCC(CO)OC(=O)CC(C(C)C)C(C)C)C(C)C (stereo unspecified)
OUT: inactive

* * *

system: K562; assay: NCI tumour cell line growth inhibition, 48 h
Active and inactive are the calls of the source. Rule as the data show it: active = GI50 up to about 1.1 µM and inactive = higher.
Tick one outcome: True (active), False (inactive)

Check out these entries, answers already filled in.
1) O=C1c2ccc3ccccc3c2CCC1N1CCCCC1 (stereo not drawn)
False
2) CC(C)(C)c1cc(CCC(=O)Nc2ccc(Cl)cc2Cl)nc(N)n1
False
3) COc1ccc(OC)c2c1C(=O)C1CC1(Br)C2=O (stereo not drawn)
False
4) CCCC(=O)OC(OC(=O)CCC)c1ccc([N+](=O)[O-])o1
False
5) C=C(C)[C@H]1CC[C@@]23O[C@@H]2[C@@H](C[C@@]2(C)CC(=O)[C@H](CC(=O)C1)O2)OC(=O)[C@@]12CC[C@H](C(=C)C)CC(=O)C[C@H]4O[C@](C)(CC4=O)C[C@@H](OC3=O)[C@@H]1O2
False

IN: I'd appreciate the recorded outcome for COC(=O)C1Cc2c(OC)ccc(OC)c2CC(C(=O)OC)C1=O (stereo not drawn) from this test.
OUT: False

IN: Could you do the same for O=C(NNC(=O)c1ccncc1)C(=O)Nc1cc(Cl)c(Cl)cc1Cl , please?
OUT: False

* * *

system: XF498; test: NCI tumour cell line growth inhibition, 48 h
Activity calls are given as the source filed them. Cut-off read from the data, not from the text of the source: active = GI50 up to about 1.1 µM and inactive = higher.
property name: GI50

Worked examples, 3 molecules total:
1) Cc1ccc(NC(=O)c2nc(S)nc(N)c2-c2ccccc2C)cc1C
> 100 µM (inactive)
2) NC(=O)c1ccc([N+](=O)[O-])cc1
> 100 µM (inactive)
3) CC1Nc2ccccc2NC1C=C(C#N)C#N (centres undefined)
17.1 µM (inactive)

Here is another molecule to look at.
IN: Endpoint output: GI50 of COc1ccc(OC)c(NC(=O)C(=O)NNC(=O)c2sc(NNC(C)=O)nc2C)c1 . Value?
OUT: 25.6 µM (inactive)

* * *

Catalogue of GI50 values
system: OVCAR-4; test: NCI tumour cell line growth inhibition, 48 h
Activity calls are given as the source filed them. No stated cut-off is given here; in the data, active = GI50 up to about 1.1 µM and inactive = higher.

1) O=C(O)[C@H]1NC[C@@H]2ON=C(Br)[C@@H]21
> 100 µM (inactive)
2) Cc1cc(NS(=O)(=O)c2ccc(/N=N/c3c(O)c(C(=O)O)cc4ccccc34)cc2)nc(C)n1
> 100 µM (inactive)
3) N#CC1([N+](=O)[O-])C=C1c1ccccc1 (configuration not stated)
> 100 µM (inactive)
4) Cn1c(=O)c(C2c3ccccc3Oc3c2c(=O)n(C)c2ccccc32)c(O)c2ccccc21 (configuration not stated)
86.7 µM (inactive)

Lab note: next compound to report on.
IN: Consider the compound O=C(O)c1cc(/C=C/c2cc(O)ccc2O)ccc1O and give its measured GI50.
OUT: > 10 µM (inactive)

* * *

tested on: NCI/ADR-RES; test: NCI tumour cell line growth inhibition, 48 h
Activity calls are given as the source filed them. Cut-off read from the data, not from the text of the source: active = GI50 up to about 1.1 µM and inactive = higher.
Result category, one only: 1 (yes) = active, 0 (no) = inactive

Reference set, count: 3
1) Cc1nc2c3c(ncn2n1)Oc1c(c(-c2ccccc2)nn1-c1ccccc1)C3c1ccc(Cl)cc1 (stereo not drawn)
0 (no)
2) O=C(Cn1c2ccc(Br)cc2c2nc3ccccc3nc21)NCc1ccccc1
0 (no)
3) C=C[C@@H]1C(CO)=CCC2[C@H]1CCC1C(C)(C)C(=O)CC[C@]21C (stereo partly drawn)
0 (no)

IN: Please indicate how the test categorized NC(=O)N/N=C\CC(O)(C(F)(F)Cl)C(F)(F)Cl .
OUT: 0 (no)

IN: Consider next the compound Cn1c2ccccc2n2c(=O)c3cccnc3c(C#N)c12 in the same way.
OUT: 0 (no)

IN: Repeat with COCOc1ccc(C2(O)Oc3cc(OCOC)ccc3C2C)c(O)c1 (stereo not drawn)
OUT: 0 (no)

IN: Then Cc1cccc(C(O)c2cccnc2)c1O (stereo not drawn) ?
OUT: 0 (no)

IN: Field entry: O=C1/C(=C/c2ccccc2O)N=C(c2ccccc2)N1C1Nc2cc3c(cc2S1)NC(N1C(=O)/C(=C/c2ccccc2O)N=C1c1ccccc1)S3 (stereo not drawn)
OUT: 0 (no)

IN: Another: COc1ccccc1N1C(=O)CS(=O)(=O)C1c1cccc(Oc2ccccc2)c1 (stereo not drawn)
OUT: 0 (no)

IN: Another compound to look at: COC(=O)/C=C/[C@H]1[C@H](C)N1S(=O)(=O)c1ccc(C)cc1 (stereo partly drawn)
OUT: 0 (no)

IN: Query COC1OC(Cn2cc([N+](=O)[O-])nc2C)C(O)C(O)C1O (stereo not drawn) next
OUT: 0 (no)

IN: Param item: CCN(CC)CCn1c2cc3c(cc2c(=O)c2cccnc21)OCCO3
OUT: 0 (no)
